Where these numbers come from: patent US20190010167A1

# TARGET_OR_TEST_SYSTEM: menin/MLL (Gal4-Menin and MLL1-46-VP16) in HEK293 cells (Homo sapiens)
# ASSAY_NOTES: Mammalian cellular two-hybrid assay in HEK293 cells (Assay 2, cell assay)
# TEST_SETTINGS: Gal4-Menin/MLL1-46-VP16 two-hybrid, NanoLuc luciferase reporter, 16-18 h
Give measured IC50 for each item. Keep answers brief.

Give its IC50 value. Item: Cc1c(CN2CCC3(CCN(c4ncnc5sc(CC(F)(F)F)cc45)C3)C2)ccc2[nH]c(C#N)cc12 (single isomer, unassigned) [Example 30a]
< 100 nM

Proceed to FC(F)(F)Cc1cc2c(N3CC4(CN(CC5CCOCC5)C4)C3)ncnc2s1
100 to 1000 nM

Now consider FC(F)(F)Cc1cc2c(N3CCC4(CCN(Cc5ccc6[nH]ccc6c5)C4)C3)ncnc2s1 (stereo not shown) and answer again.
100 to 1000 nM

Moving on to Cc1c(CN2CCC3(CCN(c4ncnc5sc(CC(F)(F)F)cc45)CC3)C2)ccc2[nH]c(C#N)cc12
100 to 1000 nM

Here is the next compound: FC(F)(F)Cc1cc2c(N3CC4(CCN(CC5CCOCC5)CC4)C3)ncnc2s1
≥ 1000 nM

Proceed to OC1CCC(CN2CC3(C2)CN(c2ncnc4sc(CC(F)(F)F)cc24)C3)CC1 (stereo not shown)
100 to 1000 nM

Next record, please: CS(=O)(=O)N[C@H]1CC[C@H](CN2CCC3(CCN(c4ncnc5sc(CC(F)(F)F)cc45)C3)C2)CC1 (stereo partly shown)
100 to 1000 nM

---

What pIC50 was measured for each of the following?
# TARGET_OR_TEST_SYSTEM: wild-type menin / MLL-AF9 fusion protein (Homo sapiens, UniProt O00255)
# Construct: HEK293 cleared lysate (MLL-AF9-FLAG)
# ASSAY_NOTES: AlphaLISA menin/MLL binding assay, wild-type menin (Assay 1)
# TEST_SETTINGS: biotinylated wild-type menin 5 nM, MLL-AF9-FLAG lysate
pIC50: −log10 of the molar value.

Kindly state the measured pIC50 obtained for CC(C)CN1CC2(CCN(c3ncnc4sc(CC(F)(F)F)nc34)CC2)C1 with wild-type menin / MLL-AF9 fusion protein (Homo sapiens, UniProt O00255).
≤ 6.00

Moving on to the next molecule: FC(F)(F)Cc1cc2c(N3CCC4(CC3)CN(C3CCOCC3)C4)ncnc2s1
≤ 6.00

Please answer likewise for CC(=O)Nc1ccc(CN2CCC3(CCN(c4ncnc5sc(CC(F)(F)F)cc45)C3)C2)cc1 (stereo not shown)
> 7.00

Next molecule up: CS(=O)(=O)Nc1ccc(CN2CCC3(CC2)CN(c2ncnc4sc(CC(F)(F)F)cc24)C3)cc1
> 7.00

---

# TARGET_OR_TEST_SYSTEM: wild-type menin / MLL-AF9 fusion protein (Homo sapiens, UniProt O00255)
# Construct: HEK293 cleared lysate (MLL-AF9-FLAG)
# Sequence (O00255 1-610): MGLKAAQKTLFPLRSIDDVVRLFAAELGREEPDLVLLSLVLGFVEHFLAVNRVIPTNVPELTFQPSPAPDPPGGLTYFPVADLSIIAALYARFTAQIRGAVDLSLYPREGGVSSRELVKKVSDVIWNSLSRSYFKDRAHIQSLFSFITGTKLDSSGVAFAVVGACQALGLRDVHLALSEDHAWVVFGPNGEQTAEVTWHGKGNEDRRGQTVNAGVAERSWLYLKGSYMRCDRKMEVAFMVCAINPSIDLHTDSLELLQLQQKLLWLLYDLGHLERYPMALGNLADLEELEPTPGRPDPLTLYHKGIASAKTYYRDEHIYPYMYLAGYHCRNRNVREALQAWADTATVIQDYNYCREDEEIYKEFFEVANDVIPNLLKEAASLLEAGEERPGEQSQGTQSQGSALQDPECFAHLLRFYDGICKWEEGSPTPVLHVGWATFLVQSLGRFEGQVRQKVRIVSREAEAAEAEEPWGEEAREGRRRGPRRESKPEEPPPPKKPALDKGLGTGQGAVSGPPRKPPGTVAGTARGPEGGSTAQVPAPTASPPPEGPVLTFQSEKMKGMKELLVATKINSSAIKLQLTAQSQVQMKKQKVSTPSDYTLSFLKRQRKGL
# ASSAY_NOTES: AlphaLISA menin/MLL binding assay, wild-type menin (Assay 1)
# TEST_SETTINGS: biotinylated wild-type menin 5 nM, MLL-AF9-FLAG lysate
pIC50: −log10 of the molar value. Counter-ions that a name gives are not always drawn.
RECORDED_METRIC: pIC50

Quick one: pIC50 of CC(=O)Nc1ccc(CN2CCC3(CCN(c4ncnc5sc(CC(F)(F)F)cc45)C3)C2)c(C)c1 (stereo not shown) ?
> 7.00

Also check FC(F)(F)Cc1cc2c(N3CCC4(CC3)CN(CC3CCOCC3)C4)ncnc2s1
6.00 to 7.00

Here is the next compound: FC(F)(F)Cc1cc2c(N3CCC4(CCN(CC5CCOCC5)CC4)C3)ncnc2s1
6.00 to 7.00

And then FC(F)(F)Cc1cc2c(N3CC4(CCN(Cc5ccccc5)CC4)C3)ncnc2s1 , what is it?
6.00 to 7.00

What do we get for FC(F)(F)Cc1ccc2ncnc(N3CC4(CN(CC5CCOCC5)C4)C3)c2c1 ?
≤ 6.00

Entry CC1(C)CCC(CN2CC3(C2)CN(c2ncnc4sc(CC(F)(F)F)cc24)C3)CC1 please
6.00 to 7.00

# repeat for FC(F)(F)Cc1cc2c(N3CCC4(CN(CC5CCOCC5)C4)C3)ncnc2s1
6.00 to 7.00

Please answer likewise for FC(F)(F)Cc1cc2c(N3CC4(CN(CC5CCCCC5)C4)C3)ncnc2s1
> 7.00

What do you get for O=C(C1CCCNC1)N1CCC2(CCN(c3ncnc4sc(CC(F)(F)F)cc34)C2)C1 (stereo not shown) ?
6.00 to 7.00

Next compound up: FC(F)(F)Cc1cc2c(N3CC4(CN(CC5CCC(F)(F)CC5)C4)C3)ncnc2s1
6.00 to 7.00

Follow-up item: CC(C)(F)CN1CC2(CCN(c3ncnc4sc(CC(F)(F)F)cc34)CC2)C1
≤ 6.00

Lookup CS(=O)(=O)Nc1ccc(CN2CCC3(CCN(c4ncnc5sc(CC(F)(F)F)nc45)C3)C2)cc1 (stereo not shown)
> 7.00

Similarly, FC(F)(F)Cc1ccc2nccc(N3CCC4(CC3)CN(CC3CC3)C4)c2c1 ?
≤ 6.00

Check O=S1(=O)CCC(N2CCC3(CC2)CN(c2ncnc4sc(CC(F)(F)F)cc24)C3)CC1 too.
6.00 to 7.00

Try this compound next: CC(C)(N)C(=O)N1CCC2(CCN(c3ncnc4sc(CC(F)(F)F)cc34)C2)C1 (stereo not shown)
6.00 to 7.00

Same read-out for FC(F)(F)Cc1cc2c(N3CCC4(CC3)CN(CC3CCC(F)(F)CC3)C4)ncnc2s1 ?
6.00 to 7.00

Cc1c(CN2CC[C@@]3(CCN(c4ccnc5ccc(CC(F)(F)F)cc45)C3)C2)ccc2[nH]c(C#N)cc12 (single isomer, unassigned) [Example 86a] , same question.
6.00 to 7.00

Input CS(=O)(=O)Cc1ccc(CC(=O)N2CC3(C2)CN(c2ncnc4sc(CC(F)(F)F)cc24)C3)cc1
6.00 to 7.00

Same thing, different compound: Cc1c(CN2CCC3(CCN(c4ncnc5sc(CC(F)(F)F)nc45)C3)C2)ccc2[nH]c(C#N)cc12 (stereo not shown)
> 7.00

Thanks! And FC(F)(F)Cc1cc2c(N3CCC4(CCN(C[C@H]5CC[C@H](C(F)(F)F)CC5)C4)C3)ncnc2s1 (stereo partly shown) ?
6.00 to 7.00

Try FC(F)(F)Cc1cc2c(N3CCC4(CCN(Cc5ccccc5)C4)C3)ncnc2s1 (stereo not shown) next.
> 7.00

Please give the result for CS(=O)(=O)c1ccc(CN2CCC3(CCN(c4ncnc5sc(CC(F)(F)F)cc45)C3)C2)c(Cl)c1 (stereo not shown) too.
6.00 to 7.00

Same for Cc1c(CN2CCC3(CCN(c4ncnc5ccc(CC(F)(F)F)cc45)C3)C2)ccc2[nH]c(C#N)cc12 (stereo not shown)
> 7.00

And for O=c1[nH]c2ccc(CN3CCC4(CCN(c5ncnc6sc(CC(F)(F)F)cc56)C4)C3)cc2n1CCO (stereo not shown) ?
> 7.00

Follow-up entry: CCC(C)CN1CCC2(CC1)CCN(c1ncnc3sc(CC(F)(F)F)cc13)C2 (stereo not shown)
6.00 to 7.00

Subsequent entry: CC(=O)N[C@H]1CC[C@@H](CN2CCC3(CCN(c4ncnc5sc(CC(F)(F)F)cc45)C3)C2)CC1 (stereo partly shown)
6.00 to 7.00

Continue with Cc1c(CN2CCC3(CC2)CN(c2ncnc4sc(CC(F)(F)F)cc24)C3)ccc2[nH]c(C#N)cc12 [Example 96, hydrochloride]
> 7.00

And the next one, FC(F)(F)Cc1cc2c(N3CCC4(CC3)CN(Cc3ccccc3)C4)ncnc2s1 ?
≤ 6.00

Next compound: N#Cc1cccc(CN2CCC3(CCN(c4ncnc5sc(CC(F)(F)F)cc45)C3)C2)c1 (stereo not shown)
6.00 to 7.00

For CS(=O)(=O)N[C@H]1CC[C@H](CN2CCC3(CCN(c4ncnc5sc(CC(F)(F)F)cc45)C3)C2)CC1 (stereo partly shown) then?
> 7.00

Cool, now O=c1[nH]c2cc(CN3CCC4(CCN(c5ncnc6cc(CC(F)(F)F)sc56)C4)C3)ccc2n1CCO (stereo not shown)
> 7.00
